Each entry below carries its recorded kon.
- target-or-system: T1, full length recombinant human 2N4R tau (human, UniProt P10636 1-758)
- T1 construct: bought from rPeptide; pHrodo Red maleimide-labelled where it stands in uptake assays; also called tau1-441; full length tau
- T1 sequence (P10636 other isoform, or with tags, fused parts or gaps limits assumed): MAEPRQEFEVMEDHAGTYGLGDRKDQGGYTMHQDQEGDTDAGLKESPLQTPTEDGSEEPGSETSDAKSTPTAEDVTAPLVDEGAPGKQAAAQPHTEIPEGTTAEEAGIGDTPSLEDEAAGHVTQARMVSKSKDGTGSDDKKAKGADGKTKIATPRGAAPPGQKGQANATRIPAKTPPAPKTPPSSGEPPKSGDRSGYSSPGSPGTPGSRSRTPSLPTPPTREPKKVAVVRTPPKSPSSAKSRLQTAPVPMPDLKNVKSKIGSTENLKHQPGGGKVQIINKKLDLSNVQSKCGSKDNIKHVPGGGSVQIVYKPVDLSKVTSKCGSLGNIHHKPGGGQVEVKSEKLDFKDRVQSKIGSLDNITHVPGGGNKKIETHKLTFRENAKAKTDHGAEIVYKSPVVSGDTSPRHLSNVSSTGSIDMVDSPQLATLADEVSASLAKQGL
- assay-summary: SPR SCK, IgG on Protein A, tau in flow
Give the quantity in M⁻¹ s⁻¹, number only.

# count of solved cases: 5
#44_VH4VK4_H20/pVL (antibody, V domains shown, also called Clone VH4_H20; #44_VH4_H20) VH: QVQLQESGPGLVKPSETLSLTCTVSGIDLSSYAMAWVRQAPGKGLEWIGAIDSRGSTFYASWVKGRFTISKDTSKTTVDLQMTSLTAEDTATYFCARDSGAFDPWGQGTLVTVSS VL: DIQMTQSPSSLSASVGDRVTITCQASQSVYDNYLAWYQQKPGQPPKLLIHAASNLASGVPSRFSGSGSGTEFTLTISSLQPDDFATYYCLGEFSCTTTDCNVFGGGTKVEIK : 4.6e+06
#44_VH4VK4_H05/pVL (antibody, V domains shown, also called Clone VH4_H05; #44_VH4_H05) VH: QVQLQESGPGLVKPSETLSLTCTVSGIDLSSYAMAWVRQAPGKGLEWIGCIDRRGGTFYASWVKGRFTISKDTSKTTVDLQMTSLTAEDTATYFCARDAGHFDYWGQGTLVTVSS VL: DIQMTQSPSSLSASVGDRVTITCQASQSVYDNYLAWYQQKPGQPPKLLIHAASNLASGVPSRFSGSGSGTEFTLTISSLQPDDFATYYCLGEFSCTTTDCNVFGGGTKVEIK : 4.18e+06
#44_VH4VK4_H16-H04/pVL (antibody, V domains shown, also called Clone VH4_H16_H04; #44_VH4_H16-H04) VH: QVQLQESGPGLVKPSETLSLTCTVSGIDLSSYAMAWVRQAPGKGLEWIGAIDRAGNTFYASWVKGRFTISKDTSKTTVDLQMTSLTAEDTATYFCARDAGSFHPWGQGTLVTVSS VL: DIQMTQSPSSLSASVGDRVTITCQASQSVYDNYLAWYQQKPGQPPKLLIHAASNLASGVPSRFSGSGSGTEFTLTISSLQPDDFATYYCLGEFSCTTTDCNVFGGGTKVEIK : 4.99e+06
#44_VH4_H06/L2 (antibody, V domains shown, also called Clone VH4_H06/L2) VH: QVQLQESGPGLVKPSETLSLTCTVSGIDLSSYAMAWVRQAPGKGLEWIGVIDAAGHTFYASWVKGRFTISKDTSKTTVDLQMTSLTAEDTATYFCARDSGTFDPWGQGTLVTVSS VL: DIQMTQSPSSLSASVGDRVTITCQASQSVYDNYLAWYQQKPGQPPKLLIHAASNLASGVPSRFSGSGSGTEFTLTISSLQPDDFATYYCLGEFSCQDTDCNVFGGGTKVEIKR : 4.52e+06
#44_VH4VK4_H06-H02/pVL (antibody, V domains shown, also called H06-02/pVL; Clone VH4_H06_H02) VH: QVQLQESGPGLVKPSETLSLTCTVSGIDLSSYAMAWVRQAPGKGLEWIGVIDAAGHTFYASWVKGRFTISKDTSKTTVDLQMTSLTAEDTATYFCARDRGDFDVWGQGTLVTVSS VL: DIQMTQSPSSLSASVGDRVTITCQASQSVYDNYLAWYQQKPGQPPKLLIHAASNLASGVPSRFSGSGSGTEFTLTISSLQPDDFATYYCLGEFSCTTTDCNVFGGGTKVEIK : 5.75e+06

Inquiry: Consider the binder shown here: #44_VH4_H09/L2 (antibody, V domains shown, also called Clone VH4_H09/L2) VH: QVQLQESGPGLVKPSETLSLTCTVSGIDLSSYAMAWVRQAPGKGLEWIGAIDARGNTFYASWVKGRFTISKDTSKTTVDLQMTSLTAEDTATYFCARDSGAFDPWGQGTLVTVSS VL: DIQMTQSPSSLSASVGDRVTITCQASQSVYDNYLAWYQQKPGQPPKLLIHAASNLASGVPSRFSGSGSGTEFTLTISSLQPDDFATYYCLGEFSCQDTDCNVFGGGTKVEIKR What is its recorded kon?
Reply text: 728000

Inquiry: Consider the binder shown here: #44_VH4VK4_H06-H04/pVL (antibody, V domains shown, also called H06-04/pVL; Clone VH4_H06_H04) VH: QVQLQESGPGLVKPSETLSLTCTVSGIDLSSYAMAWVRQAPGKGLEWIGVIDAAGHTFYASWVKGRFTISKDTSKTTVDLQMTSLTAEDTATYFCARDAGSFHPWGQGTLVTVSS VL: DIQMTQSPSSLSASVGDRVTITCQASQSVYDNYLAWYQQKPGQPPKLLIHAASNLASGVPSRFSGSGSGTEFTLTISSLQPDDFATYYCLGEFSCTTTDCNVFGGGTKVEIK What is its recorded kon?
Reply text: 6.14e+06

Inquiry: Consider the binder shown here: #44_VH4VK4_H06-H01/pVL (antibody, V domains shown, also called H06-01/pVL; Clone VH4H_06_H01) VH: QVQLQESGPGLVKPSETLSLTCTVSGIDLSSYAMAWVRQAPGKGLEWIGVIDAAGHTFYASWVKGRFTISKDTSKTTVDLQMTSLTAEDTATYFCARDVGSFDVWGQGTLVTVSS VL: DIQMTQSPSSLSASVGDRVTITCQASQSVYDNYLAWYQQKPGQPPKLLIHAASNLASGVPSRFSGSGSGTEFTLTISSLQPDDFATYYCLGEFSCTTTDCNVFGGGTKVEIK What is its recorded kon?
Reply text: 3.15e+06

Inquiry: Consider the binder shown here: #44_VH4VK4_H01/pVL (antibody, V domains shown, also called Clone VH4_H01; #44_VH4_H01) VH: QVQLQESGPGLVKPSETLSLTCTVSGIDLSSYAMAWVRQAPGKGLEWIGCIDRRGGTFYASWVKGRFTISKDTSKTTVDLQMTSLTAEDTATYFCARDVGSFDVWGQGTLVTVSS VL: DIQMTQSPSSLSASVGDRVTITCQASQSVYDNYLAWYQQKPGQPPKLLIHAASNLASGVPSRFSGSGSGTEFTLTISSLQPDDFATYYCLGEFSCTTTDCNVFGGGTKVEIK What is its recorded kon?
Reply text: 2.97e+06

Inquiry: Consider the binder shown here: #44_VH4_H14/L2 (antibody, V domains shown, also called Clone VH4_H14/L2) VH: QVQLQESGPGLVKPSETLSLTCTVSGIDLSSYAMAWVRQAPGKGLEWIGAIDSAGSTFYASWVKGRSTISKDTSKTTVDLQMTSLTAEDTATYFCARDSGAFDPWGQGTLVTVSS VL: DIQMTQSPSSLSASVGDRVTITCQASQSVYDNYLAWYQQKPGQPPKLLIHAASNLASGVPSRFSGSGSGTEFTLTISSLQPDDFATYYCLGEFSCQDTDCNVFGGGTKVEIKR What is its recorded kon?
Reply text: 1.28e+06
